# Test system: 415267-285-R-J2-PDC complex spheroid viability
# Assay details: Anticancer human tumor 415267-285-R-J2-PDC patient-derived breast carcinoma cell line growth inhibition [POLQ]
# Condition label: second compound 1 µM; first compound 0.000316 µM; active compounds read low
// viability, T/C lookup, one value per entry
Measurement type: viability, T/C (%)

{"Compound": "Cn1ncnc1[C@H]1c2n[nH]c(=O)c3cc(F)cc(c23)N[C@@H]1c1ccc(F)cc1 + Nc1ccc(C#CCN(C(=O)Cc2ncc(C(F)(F)F)cc2C(F)(F)F)c2ccc(F)cc2)nn1", "Observed": 98.9}
{"Compound": "CC[C@@]1(O)C(=O)OCc2c1cc1n(c2=O)Cc2cc3c(CN(C)C)c(O)ccc3nc2-1 + Nc1ccc(C#CCN(C(=O)Cc2ncc(C(F)(F)F)cc2C(F)(F)F)c2ccc(F)cc2)nn1", "Observed": 120}
{"Compound": "Cn1ncnc1[C@H]1c2n[nH]c(=O)c3cc(F)cc(c23)N[C@@H]1c1ccc(F)cc1 + Cc1cccc(N(C)C(=O)C2C(O)CCN2c2nc(C)cc(C(F)(F)F)c2C#N)c1", "Observed": 103}
{"Compound": "CC[C@@]1(O)C(=O)OCc2c1cc1n(c2=O)Cc2cc3c(CN(C)C)c(O)ccc3nc2-1 + COC1C(OC(N)=O)C(O)C(Oc2ccc3c(O)c(NC(=O)c4ccc(O)c(CC=C(C)C)c4)c(=O)oc3c2C)OC1(C)C", "Observed": 93.6}
{"Compound": "CC[C@@]1(O)C(=O)OCc2c1cc1n(c2=O)Cc2cc3c(CN(C)C)c(O)ccc3nc2-1 + Cc1cccc(N(C)C(=O)C2C(O)CCN2c2nc(C)cc(C(F)(F)F)c2C#N)c1", "Observed": 101}
{"Compound": "Cn1ncnc1[C@H]1c2n[nH]c(=O)c3cc(F)cc(c23)N[C@@H]1c1ccc(F)cc1 + COC1C(OC(N)=O)C(O)C(Oc2ccc3c(O)c(NC(=O)c4ccc(O)c(CC=C(C)C)c4)c(=O)oc3c2C)OC1(C)C", "Observed": 97.6}

* * *

# Test system: 415267-285-R-J2-PDC complex spheroid viability
# Assay details: Anticancer human tumor 415267-285-R-J2-PDC cell line growth inhibition [POLQ]; active = viability on the fitted dose curve at most 10% of control; inactive = the rest;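 note: luminescence used as stand-in measure of viable cells; spheroids exposed to compounds for one week before readout; 100% = DMSO vehicle control viability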
# Condition label: second compound 0.1 µM; first compound 0.0316 µM
Classes used: active, inactive

{"Compound": "C=CC(=O)N1CCN(c2nc(=O)n(-c3c(C)ccnc3C(C)C)c3nc(-c4c(O)cccc4F)c(F)cc23)C(C)C1 (stereo unspecified) + COC1C(OC(N)=O)C(O)C(Oc2ccc3c(O)c(NC(=O)c4ccc(O)c(CC=C(C)C)c4)c(=O)oc3c2C)OC1(C)C", "Assigned category": "inactive"}
{"Compound": "CCCS(=O)(=O)Nc1ccc(F)c(C(=O)c2c[nH]c3ncc(-c4ccc(Cl)cc4)cc23)c1F + Nc1ccc(C#CCN(C(=O)Cc2ncc(C(F)(F)F)cc2C(F)(F)F)c2ccc(F)cc2)nn1", "Assigned category": "inactive"}
{"Compound": "CNCc1ccc(-c2[nH]c3cc(F)cc4c3c2CCNC4=O)cc1 + Cc1cccc(N(C)C(=O)C2C(O)CCN2c2nc(C)cc(C(F)(F)F)c2C#N)c1", "Assigned category": "inactive"}
{"Compound": "Nc1ccn(C2OC(CO)C(O)C2(F)F)c(=O)n1 (stereo unspecified) + Cc1cccc(N(C)C(=O)C2C(O)CCN2c2nc(C)cc(C(F)(F)F)c2C#N)c1", "Assigned category": "active"}
{"Compound": "Nc1ccn(C2OC(CO)C(O)C2(F)F)c(=O)n1 (stereo unspecified) + Nc1ccc(C#CCN(C(=O)Cc2ncc(C(F)(F)F)cc2C(F)(F)F)c2ccc(F)cc2)nn1", "Assigned category": "inactive"}
{"Compound": "COc1cc2cc(C(=O)CCC(=O)O)sc2cc1OC + Cc1cccc(N(C)C(=O)C2C(O)CCN2c2nc(C)cc(C(F)(F)F)c2C#N)c1", "Assigned category": "inactive"}
